System: LOX IMVI melanoma
Assay: NCI-60 one-dose screen, 48 h (100 = growth as untreated, 0 = no growth, -100 = all killed)
Conditions: 10 µM unless noted
This is part of a sample that, as a whole, favours compounds with a hit. Of some 83,000 tested, about 20% had one in any assay.
Measured growth accompanies every entry in the list below.
Just the number please, in %, no unit attached.

Enquiry: Entry COC(=O)c1ccc2[nH]c(O)c(C(=Nc3ccc(N(C)C(=O)CN4CCN(C)CC4)cc3)c3ccc(N)cc3)c2c1 has what growth?
Return: 74.6

Enquiry: What value of measured growth is listed for O=C(OCC1CC2(Cl)C(Cl)=C(Cl)C1(Cl)C2(Cl)Cl)C1C(C(=O)OCC2CC3(Cl)C(Cl)=C(Cl)C2(Cl)C3(Cl)Cl)C2(Cl)C(Cl)=C(Cl)C1(Cl)C2(Cl)Cl (stereo not given) ?
Return: 122

Enquiry: So what's the measured growth for this one? COc1ccc(-c2nc(SCC(C)C)nc(Nc3ccc([N+](=O)[O-])cc3)c2C#N)cc1
Return: 91.7

Enquiry: # lookup: growth of COC(=O)c1ccc(C(=Nc2ccc(N(C)C(=O)CN3CCN(C)CC3)cc2)c2c(O)[nH]c3ccc(C(=O)OC)cc23)cc1
Return: 38.5

Continuing:
Enquiry: growth lookup needed for CCCCCCCCCCCCCCCCC(=O)O.CCCCCCCCCCCCCCCCCC(=O)O.CCCCCCCCCCCCCCCCCC(=O)O.CCCCCCCCCCCCCCCCCC(=O)O.CCCCCCCCCCCCCCCCCC(=O)O.CO[CH-]OC12COC1CC(O)C1(C)C(O)C(OC(C)O)C3=C(C)C(OC(=O)C(O)C([NH-])c4ccccc4)CC(O)(C(OC(=O)c4ccccc4)C21)C3(C)C.[Cu+].[Zn].[Zn].[Zn].[Zn].[Zn] (stereo not given) , thanks.
Return: 39.4
